Source: patent US12180198B2

System: K. pneumoniae BAA-2146
Assay: Bioactivity against exemplary strains of bacteria (Table 5A)
Type: cell-based
Settings: Strain 4: K. pneumoniae BAA-2146
Counter-ions that a name gives are not always drawn.
This listing pairs compounds with measured Bioactivity.

# input Requested field: Bioactivity. Item: Cc1c(CN(C)C(=O)/C=C/c2cnc3c(c2)CCC(=O)N3)oc2ccccc12 [Debio-1452, reference compound]
# output >32

# input Which Bioactivity reading was recorded for the compound Cc1c(CN(C)C(=O)/C=C/c2cnc3c(c2)CC(N)C(=O)N3)oc2ccccc12 (stereo not drawn) [Debio-1452-NH3, hydrochloride] ?
# output 32

# input Would you kindly share the measured Bioactivity for Cc1ccc2nc(/C=C/c3ccc(Cl)cc3)nc(NCCN)c2c1 ?
# output 64

# input Fill in the blank: the reported Bioactivity of NCCNc1nc(/C=C/c2ccc(Cl)cc2)nc2cc3ccccc3cc12 is ____.
# output >32

# input Bench note: what Bioactivity did CCN(CC)CCNc1nc(/C=C/c2ccc(Cl)cc2)nc2cc3ccccc3cc12 [Z3, Zantrin Z3, reference compound] show?
# output >64

# input Would you kindly share the measured Bioactivity for NCc1cnc(-n2cnc(CN3CCCC(c4nc(O)cc(-c5cccs5)n4)C3)c2)nc1 (stereo not drawn) [R13a] ?
# output 64

---

# maps each entry to its Bioactivity
Tested on: E. coli BAA-2469
Assay: Bioactivity against exemplary strains of bacteria (Table 5A)
Assay type: cell-based
Settings: Strain 2: E. coli BAA-2469
Structures can show the parent of a compound that is named as a salt.
Output: the number by itself.

| COMPOUND | MEASURED_ON | Bioactivity |
| --- | --- | --- |
| Cc1c(CN(C)C(=O)/C=C/c2cnc3c(c2)CC(N)C(=O)N3)oc2ccccc12 (stereo not drawn) [Debio-1452-NH3, hydrochloride] | E. coli BAA-2469 | 4 |
| NCc1cnc(-n2cnc(CN3CCCC(c4nc(O)cc(-c5cccs5)n4)C3)c2)nc1 (stereo not drawn) [R13a] | E. coli BAA-2469 | 16 |
| Cc1ccc2nc(/C=C/c3ccc(Cl)cc3)nc(NCCN)c2c1 | E. coli BAA-2469 | 8 |

Could you now look at the following compound, please?
# input Looking for the measured Bioactivity of NCCNc1nc(/C=C/c2ccc(Cl)cc2)nc2cc3ccccc3cc12 , can you help?
# output 4

---

Form field: Bioactivity (one value per entry).
Tested on: A. baumannii BAA-2093
Assay: Bioactivity against exemplary strains of bacteria (Table 5A)
Assay type: cell-based
Conditions: Strain 3: A. baumannii BAA-2093
Counter-ions that a name gives are not always drawn.
// return a plain number; no unit text

Example entries and their recorded answers appear below.
| COMPOUND | Bioactivity |
| --- | --- |
| CCN(CC)CCNc1nc(/C=C/c2ccc(Cl)cc2)nc2cc3ccccc3cc12 [Z3, Zantrin Z3, reference compound] | 32 |
| Cc1ccc2nc(/C=C/c3ccc(Cl)cc3)nc(NCCN)c2c1 | 8 |
| NCCNc1nc(/C=C/c2ccc(Cl)cc2)nc2cc3ccccc3cc12 | 2 |

# input Bench note: what Bioactivity did Cc1c(CN(C)C(=O)/C=C/c2cnc3c(c2)CCC(=O)N3)oc2ccccc12 [Debio-1452, reference compound] show?
# output 16

# input Need Bioactivity, item Cc1c(CN(C)C(=O)/C=C/c2cnc3c(c2)CC(N)C(=O)N3)oc2ccccc12 (stereo not drawn) [Debio-1452-NH3, hydrochloride]
# output 4
